Test system: Saccharomyces cerevisiae BY4741 SeMeCo community
Assay: z-score of subpopulation abundance vs DMSO median, subpopulation auxotrophic for HU; higher = larger share of this subpopulation than in DMSO controls
Conditions: 10 µM; 24 h; SM minimal medium; subpopulation (auxotrophy): HU
Counter-ions that a name gives are not always drawn.
Is z-score of subpopulation abundance at least 0.3? Then MET. If not, NOT MET.

## Input Decide: z-score of subpopulation abundance of CCC(=O)O[C@@H]1CC(=O)O[C@H](C)C/C=C/C=C/[C@H](O)[C@H](C)C[C@H](CC=O)[C@H](O[C@@H]2O[C@H](C)[C@@H](O[C@H]3C[C@@](C)(O)[C@@H](OC(=O)CC)[C@H](C)O3)[C@H](N(C)C)[C@H]2O)[C@H]1OC >= 0.3?
## Output MET

## Input Decide: z-score of subpopulation abundance of Nc1nc(O)c2ncn(CCC(CO)CO)c2n1 >= 0.3?
## Output NOT MET

## Input Decide: z-score of subpopulation abundance of c1ccc(C2CN3CCSC3=N2)cc1 (stereo not drawn) [Tetramisole HCl] >= 0.3?
## Output NOT MET

## Input Decide: z-score of subpopulation abundance of O=C(O)CCNC(=O)c1ccccc1 >= 0.3?
## Output NOT MET

## Input Decide: z-score of subpopulation abundance of CC(C)c1nc(N(C)S(C)(=O)=O)nc(-c2ccc(F)cc2)c1/C=C/[C@@H](O)C[C@@H](O)CC(=O)O >= 0.3?
## Output MET

## Input Decide: z-score of subpopulation abundance of O=[N+]([O-])c1ccc(O)c2ncccc12 >= 0.3?
## Output MET

## Input Decide: z-score of subpopulation abundance of O=c1ccc2cc(O)c(O)cc2o1 >= 0.3?
## Output NOT MET

---

System: Saccharomyces cerevisiae BY4741 SeMeCo community
Assay: z-score of subpopulation abundance vs DMSO median, subpopulation auxotrophic for HLU; higher = larger share of this subpopulation than in DMSO controls
Details: 10 µM; 24 h; SM minimal medium; subpopulation (auxotrophy): HLU
Where a name gives a salt, the structure may show the parent alone.
Is z-score of subpopulation abundance at least -0.2? Then YES. If not, NO.

## Input Decide: z-score of subpopulation abundance of COc1ccc(C(=O)NCc2ccc(OCCN(C)C)cc2)cc1OC [Itopride hydrochloride] >= -0.2?
## Output YES

## Input Decide: z-score of subpopulation abundance of Cc1cnc(NC(=O)C2=C(O)c3ccccc3S(=O)(=O)N2C)s1 [Meloxicam] >= -0.2?
## Output NO

## Input Decide: z-score of subpopulation abundance of CC1(C)S[C@@H]2[C@H](NC(=O)[C@H](N)c3ccc(O)cc3)C(=O)N2[C@H]1C(=O)O [Amoxicillin trihydrate] >= -0.2?
## Output YES

## Input Decide: z-score of subpopulation abundance of CO[C@@H]1[C@@H](OC(N)=O)[C@@H](O)[C@H](Oc2ccc3c(O)c(NC(=O)c4ccc(O)c(CC=C(C)C)c4)c(=O)oc3c2C)OC1(C)C [Novobiocin Sodium] >= -0.2?
## Output YES

## Input Decide: z-score of subpopulation abundance of O=C(O)C1=C(CSc2nnnn2CS(=O)(=O)O)CS[C@@H]2[C@H](NC(=O)[C@H](O)c3ccccc3)C(=O)N12 [Cefonicid sodium] >= -0.2?
## Output YES

## Input Decide: z-score of subpopulation abundance of CCOC(=O)C1=C(C)NC(C)=C(C(=O)OC)C1c1cccc(Cl)c1Cl (stereo not given) [Felodipine] >= -0.2?
## Output NO

## Input Decide: z-score of subpopulation abundance of C1CCN2C[C@@H]3C[C@@H](CN4CCCC[C@@H]34)[C@H]2C1 [(-)-Sparteine Sulfate] >= -0.2?
## Output NO

## Input Decide: z-score of subpopulation abundance of CC1=C(C(=O)O)N2C(=O)[C@@H](NC(=O)[C@H](N)c3ccccc3)[C@H]2SC1 [Cephalexin] >= -0.2?
## Output NO

## Input Decide: z-score of subpopulation abundance of CC(C)(C)C1CCC(CC2=C(O)c3ccccc3C(=O)C2=O)CC1 (stereo not given) [Buparvaquone] >= -0.2?
## Output YES

## Input Decide: z-score of subpopulation abundance of Clc1ccc(C(Cn2ccnc2)OCc2c(Cl)cccc2Cl)c(Cl)c1 (stereo not given) [Isoconazole nitrate] >= -0.2?
## Output YES

## Input Decide: z-score of subpopulation abundance of CN1[C@@H](CC(=O)c2ccccc2)CCC[C@H]1C[C@H](O)c1ccccc1 [Lobeline hydrochloride] >= -0.2?
## Output NO

## Input Decide: z-score of subpopulation abundance of CC(=O)OCC1=C(C(=O)O)N2C(=O)[C@@H](NC(=O)Cc3cccs3)[C@H]2SC1 [Cephalothin] >= -0.2?
## Output NO

## Input Decide: z-score of subpopulation abundance of CC1(C)S[C@@H]2[C@H](NC(=O)Cc3ccccc3)C(=O)N2[C@H]1C(=O)O [Benzylpenicillin potassium] >= -0.2?
## Output YES

## Input Decide: z-score of subpopulation abundance of CN1C[C@@H]2C[C@H]1CN2c1cc2c(cc1F)c(=O)c(C(=O)O)cn2C1CC1 [Danofloxacin Mesylate] >= -0.2?
## Output YES

## Input Decide: z-score of subpopulation abundance of Clc1ccc(COC(Cn2ccnc2)c2ccc(Cl)cc2Cl)c(Cl)c1 (stereo not given) [Miconazole] >= -0.2?
## Output YES

## Input Decide: z-score of subpopulation abundance of CCOc1ccc(NC(C)=O)cc1 [Phenacetin] >= -0.2?
## Output YES

## Input Decide: z-score of subpopulation abundance of CC(C(=O)O)c1ccc(C(=O)c2cccs2)cc1 (stereo not given) [Suprofen] >= -0.2?
## Output YES

## Input Decide: z-score of subpopulation abundance of COc1ccc(Cc2cnc(N)nc2N)cc1OC [Diaveridine] >= -0.2?
## Output YES

## Input Decide: z-score of subpopulation abundance of CCc1c(C)[nH]c2c1C(=O)C(CN1CCOCC1)CC2 (stereo not given) [Molindone hydrochloride] >= -0.2?
## Output YES

## Input Decide: z-score of subpopulation abundance of CCC(=O)O[C@@H]1CC(=O)O[C@H](C)C/C=C/C=C/[C@H](O)[C@H](C)C[C@H](CC=O)[C@H](O[C@@H]2O[C@H](C)[C@@H](O[C@H]3C[C@@](C)(O)[C@@H](OC(=O)CC)[C@H](C)O3)[C@H](N(C)C)[C@H]2O)[C@H]1OC [Midecamycin] >= -0.2?
## Output YES

## Input Decide: z-score of subpopulation abundance of CN1CCN(CC(=O)N2c3ccccc3C(=O)Nc3cccnc32)CC1 [Pirenzepine dihydrochloride] >= -0.2?
## Output NO

## Input Decide: z-score of subpopulation abundance of CO[C@H]1C[C@@H]2CC[C@@H](C)[C@@](O)(O2)C(=O)C(=O)N2CCCC[C@H]2C(=O)O[C@H]([C@H](C)C[C@@H]2CC[C@@H](O)[C@H](OC)C2)CC(=O)[C@H](C)/C=C(\C)[C@@H](O)[C@@H](OC)C(=O)[C@H](C)C[C@H](C)/C=C/C=C/C=C/1C [Rapamycin (Sirolimus)] >= -0.2?
## Output YES

## Input Decide: z-score of subpopulation abundance of Cc1c(Nc2ncccc2C(=O)O)cccc1C(F)(F)F [Flunixin Meglumin] >= -0.2?
## Output NO

## Input Decide: z-score of subpopulation abundance of COc1cc(/C=C/C(=O)N2CCN(CC(=O)N3CCCC3)CC2)cc(OC)c1OC [Cinepazide maleate] >= -0.2?
## Output YES

## Input Decide: z-score of subpopulation abundance of CCOc1cc(N)c(Cl)cc1C(=O)NCC1CN(Cc2ccc(F)cc2)CCO1 (stereo not given) [Mosapride] >= -0.2?
## Output NO

## Input Decide: z-score of subpopulation abundance of C=C[C@H]1CN2CC[C@H]1C[C@H]2[C@H](O)c1ccnc2ccc(OC)cc12 [Quinine HCl Dihydrate] >= -0.2?
## Output NO

## Input Decide: z-score of subpopulation abundance of CC1(C)S[C@@H]2[C@H](NC(=O)[C@H](NC(=O)N3CCNC3=O)c3ccccc3)C(=O)N2[C@H]1C(=O)O [Azlocillin sodium salt] >= -0.2?
## Output NO

## Input Decide: z-score of subpopulation abundance of COC(=O)C1=C(C#N)NC(C)=C(C(=O)OC(C)C)C1c1cccc([N+](=O)[O-])c1 (stereo not given) [Nilvadipine] >= -0.2?
## Output NO

## Input Decide: z-score of subpopulation abundance of CSc1nc2cc(Cl)c(Oc3cccc(Cl)c3Cl)cc2[nH]1 [Triclabendazole] >= -0.2?
## Output YES

---

Test system: Saccharomyces cerevisiae BY4741 SeMeCo community
Experiment: z-score of subpopulation abundance vs DMSO median, subpopulation auxotrophic for HL; higher = larger share of this subpopulation than in DMSO controls
Details: 10 µM; 24 h; SM minimal medium; subpopulation (auxotrophy): HL
Counter-ions that a name gives are not always drawn.
measured_endpoint: z-score of subpopulation abundance

Per the records, this molecule ( COc1cccc(-c2c(C)n(Cc3c(F)cccc3C(F)(F)F)c(=O)n(C[C@H](NCCCC(=O)O)c3ccccc3)c2=O)c1F [Elagolix Sodium] ) has z-score of subpopulation abundance equal to 0.13

Per the records, this molecule ( O=c1cc(-c2ccc(O)c(O)c2)oc2cc(O)cc(O)c12 ) has z-score of subpopulation abundance equal to 0.22

Per the records, this molecule ( C[C@H]1NCc2cc(-c3ccc4c(=O)c(C(=O)O)cn(C5CC5)c4c3OC(F)F)ccc21 ) has z-score of subpopulation abundance equal to 0.46

Per the records, this molecule ( CCCCCCCCCCCCCCCCCCOP(=O)([O-])OC1CC[N+](C)(C)CC1 ) has z-score of subpopulation abundance equal to 18.8

Per the records, this molecule ( N[C@@H]1CONC1=O ) has z-score of subpopulation abundance equal to 0.99

Per the records, this molecule ( Cc1cc(=O)n(-c2ccccc2)n1C [Antipyrine] ) has z-score of subpopulation abundance equal to -0.85

Per the records, this molecule ( C[C@]12CC[C@@H]3c4ccc(O)cc4CC[C@H]3[C@@H]1CCC2=O ) has z-score of subpopulation abundance equal to -0.05

Per the records, this molecule ( Oc1c(I)cc(I)c2cccnc12 [Diiodohydroxyquinoline] ) has z-score of subpopulation abundance equal to 2.9

Per the records, this molecule ( O=C(O)c1cn(-c2ccc(F)cc2)c2cc(N3CCNCC3)c(F)cc2c1=O [Sarafloxacin HCl] ) has z-score of subpopulation abundance equal to -0.42

Per the records, this molecule ( COc1cc(N)c(Cl)cc1C(=O)NC1CCN(CCCOc2ccc(F)cc2)CC1OC (centres undefined) [Cisapride hydrate] ) has z-score of subpopulation abundance equal to -0.17

Per the records, this molecule ( CCCCN1CCCC[C@H]1C(=O)Nc1c(C)cccc1C [Levobupivacaine HCl] ) has z-score of subpopulation abundance equal to -0.46

Per the records, this molecule ( C[C@]12CCC3=C4CCC(=O)C=C4CC[C@H]3[C@@H]1CC[C@@]2(O)CC#N ) has z-score of subpopulation abundance equal to 0.26

Per the records, this molecule ( O=C1CN(/N=C/c2ccc(-c3ccc([N+](=O)[O-])cc3)o2)C(=O)N1 [Dantrolene sodium] ) has z-score of subpopulation abundance equal to 1.35

Per the records, this molecule ( Nc1ccc(S(=O)(=O)c2ccc(N)cc2)cc1 ) has z-score of subpopulation abundance equal to 0.32

Per the records, this molecule ( Nc1c2c(nc3ccccc13)CCCC2 [Tacrine hydrochloride hydrate] ) has z-score of subpopulation abundance equal to -0.15

Per the records, this molecule ( Cc1c(Nc2ncccc2C(=O)O)cccc1C(F)(F)F ) has z-score of subpopulation abundance equal to -0.74

Per the records, this molecule ( CC(C(=O)O)c1ccc(C(=O)c2cccs2)cc1 (centres undefined) ) has z-score of subpopulation abundance equal to -0.36

Per the records, this molecule ( COc1ccc2c(c1)c(CC(=O)OCC(=O)O)c(C)n2C(=O)c1ccc(Cl)cc1 ) has z-score of subpopulation abundance equal to 0.11

Per the records, this molecule ( Nc1ccc2cc3ccc(N)cc3nc2c1 ) has z-score of subpopulation abundance equal to -3.92
